experiment: Inhibition of Colwellia psychrerythraea gamma carbonic anhydrase expressed in Escherichia coli incubated for 15 mins prior to testing by stopped flow CO2 hydration method
pKi: −log10 of the molar value.
Recorded pKi by entry
measured-quantity: pKi

>  <compound>
N#CO [SODIUM CYANATE]

>  <value-prefix>
=

>  <endpoint-value>
2.60

$$$$
>  <compound>
NS(=O)(=O)O [SULFAMATE]

>  <value-prefix>
=

>  <endpoint-value>
4.43

$$$$
>  <compound>
O=[N+]([O-])[O-].[Na+] [SODIUM NITRATE]

>  <value-prefix>
=

>  <endpoint-value>
1.66

$$$$
>  <compound>
OB(O)c1ccccc1 [PHENYLBORONIC ACID]

>  <value-prefix>
=

>  <endpoint-value>
4.59

$$$$
>  <compound>
O=C([O-])[O-].[Na+].[Na+] [SODIUM CARBONATE]

>  <value-prefix>
=

>  <endpoint-value>
2.85

$$$$
>  <compound>
S=C(S)S [SODIUM CARBONOTRITHIOATE]

>  <value-prefix>
=

>  <endpoint-value>
2.42

$$$$
>  <compound>
O=[Se](=O)(O)O [SODIUM SELENATE]

>  <value-prefix>
=

>  <endpoint-value>
2.08

$$$$
>  <compound>
O=[Te](=O)(O)O [SODIUM TELLURATE]

>  <value-prefix>
=

>  <endpoint-value>
2.29

$$$$
>  <compound>
[O-][Cl+3]([O-])([O-])O [SODIUM PERCHLORATE]

>  <value-prefix>
<

>  <endpoint-value>
1.00

$$$$
>  <compound>
[I-].[Na+] [SODIUM IODIDE]

>  <value-prefix>
=

>  <endpoint-value>
2.06

$$$$
>  <compound>
S [SODIUM HYDROSULFIDE]

>  <value-prefix>
=

>  <endpoint-value>
2.32

$$$$
>  <compound>
[N-]=[N+]=[N-] [SODIUM AZIDE]

>  <value-prefix>
<

>  <endpoint-value>
1.00

$$$$
>  <compound>
O=C([O-])O.[Na+] [SODIUM BICARBONATE]

>  <value-prefix>
=

>  <endpoint-value>
2.77

$$$$
>  <compound>
[F-].[Na+] [SODIUM FLUORIDE]

>  <value-prefix>
<

>  <endpoint-value>
1.00

$$$$
>  <compound>
CCN(CC)C(=S)S [DITIOCARB SODIUM]

>  <value-prefix>
=

>  <endpoint-value>
3.24

$$$$
>  <compound>
[Cl-].[Na+] [SODIUM CHLORIDE]

>  <value-prefix>
=

>  <endpoint-value>
2.05

$$$$

* * *

Recorded pKi by entry
test: Inhibition of Colwellia psychrerythraea gamma carbonic anhydrase expressed in Escherichia coli incubated for 15 mins prior to testing by stopped flow CO2 hydration method
pKi: −log10 of the molar value.

>  <compound>
O=S(=O)(O)OOS(=O)(=O)O [SODIUM PERSULFATE]

>  <value-prefix>
=

>  <pKi>
2.35

$$$$
>  <compound>
O=S(=O)([O-])[O-].[Na+].[Na+] [SODIUM SULFATE ANHYDROUS]

>  <value-prefix>
=

>  <pKi>
2.03

$$$$
>  <compound>
O=[As](O)(O)c1ccccc1 [PHENYLARSONIC ACID]

>  <value-prefix>
=

>  <pKi>
4.42

$$$$
>  <compound>
N=C=S [SODIUM ISOTHIOCYANATE]

>  <value-prefix>
=

>  <pKi>
2.48

$$$$
>  <compound>
[Br-].[Na+] [SODIUM BROMIDE]

>  <value-prefix>
<

>  <pKi>
1.00

$$$$
>  <compound>
NS(N)(=O)=O [SULFAMIDE]

>  <value-prefix>
=

>  <pKi>
5.10

$$$$
>  <compound>
O=NO [SODIUM NITRITE]

>  <value-prefix>
=

>  <pKi>
2.06

$$$$
>  <compound>
N=C=[Se] [SODIUM ISOSELENOCYANATE]

>  <value-prefix>
=

>  <pKi>
2.22

$$$$
>  <compound>
O=BOB(O)OB(O)OB=O [SODIUM TETRABORATE]

>  <value-prefix>
=

>  <pKi>
2.33

$$$$
>  <compound>
F[B-](F)(F)F.[Na+] [SODIUM TETRAFLUOROBORATE]

>  <value-prefix>
<

>  <pKi>
1.00

$$$$
>  <compound>
O=S([O-])O.[Na+] [SODIUM BISULFITE]

>  <value-prefix>
=

>  <pKi>
1.43

$$$$
>  <compound>
F[P-](F)(F)(F)(F)F.[Na+]

>  <value-prefix>
=

>  <pKi>
2.25

$$$$
